measurement.target: SARS-CoV-2 NSP3 Mac1 (Severe acute respiratory syndrome coronavirus 2, UniProt P0DTD1)
Assay type: binding
measurement.parameters: PanDDA 1-BDC value of the event; crystal soak, compound concentration 100 mM; per dataset
Each entry gets false if its 1-BDC stays under 0.2, and true if its 1-BDC is 0.2 or above.

See these solved cases before continuing.
{"columns": ["molecule", "class.name"],
 "data": [
  ["O=C(Nc1ccccc1)Nc1ccc(C(=O)NC2c3cccc(O)c3CC2C(=O)O)cc1 (stereo not drawn)", "false"],
  ["O=C(NC1c2cccc(O)c2CC1C(=O)O)c1ccc(NCC2CC2)nc1 (stereo not drawn)", "false"],
  ["CS(=O)(=O)C1CCCN(c2ncnc3[nH]c4cc(F)ccc4c23)C1 (stereo not drawn)", "false"],
  ["CC(C)NC(=O)Nc1ccc(C(=O)NC2c3cccc(O)c3CC2C(=O)O)cc1 (stereo not drawn)", "true"],
  ["O=C1COc2cc(C(=O)NC3c4cccc(O)c4CC3C(=O)O)ccc2N1 (stereo not drawn)", "true"]
]}

Query: Given Nc1ncnc(N2CCCC(CCC(=O)O)C2)c1Cl (stereo not drawn) , state whether its 1-BDC is at least 0.2.
Reply: false

Query: Next molecule: Nc1nc(N)c2ncn(Cc3csc(C4CC4)n3)c2n1
Reply: false

Query: Next molecule: O=C(Nc1ccc(C(=O)NCc2c(C(=O)O)[nH]c3ccccc23)cc1)NC1CC1
Reply: true

Query: Next molecule: O=C(Nc1ccc(C(=O)NCc2c(C(=O)O)sc3ccccc23)cc1)NC1CC1
Reply: true

* * *

measurement.target: SARS-CoV-2 NSP3 Mac1 (Severe acute respiratory syndrome coronavirus 2)
Assay type: binding
Parameters: contains a conserved macrodomain enzyme (Mac1)
measurement.parameters: maximal thermal upshift
readout.name: DSF max dTma

{"columns": ["compound", "DSF max dTma"],
 "data": [
  ["c1ccc(-c2n[nH]c(Cc3noc([C@@H]4CCCO4)n3)n2)cc1", "0.03 ˚C"]
]}

Query: What does the record list as DSF max dTma for CC1CC(C(=O)O)N1C(=O)c1cc(O)nc2ccc(F)cc12.O=C(O)C(F)(F)F (stereo not drawn) ?
Reply: 0.37 ˚C

Query: Next compound: Cc1cc(S(=O)(=O)Nc2cnc3[nH]ccc3c2)n(C2CCCC2)n1
Reply: 0.06 ˚C

Query: Next compound: O=C(NC1c2cccc(O)c2CC1C(=O)O)c1ccc2[nH]c(CO)nc2c1 (stereo not drawn)
Reply: 5.39 ˚C

Query: Next compound: O=C(O)CC1CN(c2ncnc3[nH]c4cc(F)ccc4c23)CCO1 (stereo not drawn)
Reply: 3.21 ˚C

Query: Next compound: O=C(O)C1(F)CN(c2ncnc3[nH]c4cc(F)ccc4c23)CC12CCC2 (stereo not drawn)
Reply: 4.53 ˚C

Query: Next compound: Cc1noc(-c2ccnc(-c3ccnc4[nH]ccc34)c2)n1
Reply: 0.04 ˚C

Query: Next compound: Cn1cnc(C(=O)NCC2CCN2C(=O)c2ncnc3[nH]ccc23)c1 (stereo not drawn)
Reply: 0.1 ˚C

Query: Next compound: CNS(=O)(=O)c1cccc(-c2ncnc3[nH]c4ccccc4c23)c1
Reply: 0.27 ˚C

Query: Next compound: Nc1ncc(S(=O)(=O)N2CCC2c2cccc(F)c2)cn1 (stereo not drawn)
Reply: 0 ˚C

Query: Next compound: O=C1COc2cc(C(=O)NC3c4cccc(O)c4CC3C(=O)O)ccc2N1 (stereo not drawn)
Reply: 1.83 ˚C

Query: Next compound: O=C(NC1c2cccc(O)c2CC1C(=O)O)c1ccc(Nn2ccnc2)cc1 (stereo not drawn)
Reply: 1.23 ˚C

Query: Next compound: CC(C(=O)N1CC(C(N)=O)C1)n1cnc2c(N)ncnc21 (stereo not drawn)
Reply: 0.26 ˚C

Query: Next compound: CC(C)NC(=O)Nc1ccc(C(=O)NC2c3cccc(O)c3CC2C(=O)O)cc1 (stereo not drawn)
Reply: 6.41 ˚C

Query: Next compound: CC1C(C(=O)O)CCCN1S(=O)(=O)c1c[nH]c2ncc(Cl)cc12 (stereo not drawn)
Reply: 0.15 ˚C

* * *

measurement.target: SARS-CoV-2 NSP3 Mac1 (Severe acute respiratory syndrome coronavirus 2, UniProt P0DTD1)
Type: binding
measurement.parameters: PanDDA event map; crystal soak, Compound_concentration 100 mM, Echo_dispense_volume 40 nl
readout.name: 1-BDC
Please state the value as a number alone, without comment.

Sample answers from the record:
{"columns": ["molecule", "1-BDC"],
 "data": [
  ["CO[C@@H]1CN(c2ncnc3[nH]c4cc(F)ccc4c23)C[C@@H](CO)O1", 0.23],
  ["O=C(O)CCC1CN(c2ncnc3[nH]c4cc(F)ccc4c23)CCO1 (stereo not drawn)", 0.16],
  ["CCNc1ncc(C(=O)NCCn2cnc(C(=O)O)c2)s1", 0.1],
  ["O=C(O)Cc1cccc(CNC(=O)c2ncnc3ccsc23)c1", 0.32],
  ["O=C(O)C1CN(c2ncnc3[nH]c4cc(F)ccc4c23)CC12CCC2 (stereo not drawn)", 0.17]
]}

Next molecule, 1-BDC to be filled in.
Query: For the record O=C(O)CC(NC(=O)c1cc(F)cc2[nH]cnc12)c1ccc(Br)cc1 (stereo not drawn) , what value of 1-BDC is listed for SARS-CoV-2 NSP3 Mac1 (Severe acute respiratory syndrome coronavirus 2, UniProt P0DTD1)?
Reply: 0.29

* * *

measurement.target: SARS-CoV-2 NSP3 Mac1 (Severe acute respiratory syndrome coronavirus 2, UniProt P0DTD1)
test: biochemical
Assay type: binding
measurement.parameters: read-out: Ki***
readout.name: Ki (µM)
Express the result in µM but write the number alone.

Sample answers from the record:
{"columns": ["compound", "recorded.measurement"],
 "data": [
  ["O=C(O)CC(NC(=O)c1cc(F)cc2[nH]cnc12)c1ccc(Br)cc1 (centres unmarked) [Z3722]", 22.8],
  ["Cl.O=C(O)C1CN(c2ncnc3[nH]c4cc(F)ccc4c23)CCO1 (centres unmarked) [LL114_0033]", 35.2],
  ["O=C(NC1c2cccc(O)c2CC1C(=O)O)c1ccc2[nH]ccc2c1 (centres unmarked) [Z8539_2004]", 6.3],
  ["Fc1ccc2c(c1)[nH]c1ncnc(N3CCOC(c4nnn[nH]4)C3)c12 (centres unmarked) [LL114_0008]", 15]
]}

Query: For the record O=C(O)[C@H]1[C@@H]2CN(c3ncnc4[nH]c5cc(F)ccc5c34)CC[C@@H]21 [LL114_0037] , what value of Ki is listed for SARS-CoV-2 NSP3 Mac1 (Severe acute respiratory syndrome coronavirus 2, UniProt P0DTD1)?
Reply: 32.7

Query: Next compound: O=C(O)C1(F)CN(c2ncnc3[nH]c4cc(F)ccc4c23)CC1C1CC1 (centres unmarked) [LL123_0032]
Reply: 36.4

Query: Next compound: O=C(O)C(O)C1CCCN(c2ncnc3[nH]c4cc(F)ccc4c23)C1 (centres unmarked) [LL114_0036]
Reply: 29.7

Query: Next compound: O=C1CCCC1Nc1ncnc2[nH]c3cc(F)ccc3c12 (centres unmarked) [LRH-0008]
Reply: 11.7

* * *

measurement.target: SARS-CoV-2 NSP3 Mac1 (Severe acute respiratory syndrome coronavirus 2)
Assay type: binding
Parameters: contains a conserved macrodomain enzyme (Mac1)
measurement.parameters: DSF dose responsiveness, 1 µM nsp3 mac1; adj p given
readout.name: Spearman est (compound concentration vs apparent Tm)
Please state the value as a number alone, without comment.

{"columns": ["compound", "recorded.measurement"],
 "data": [
  ["NC(=O)c1ccc(CCSc2cccc(F)c2)cc1", "−0.73"]
]}

Query: For the record CN(Cc1cccc(O)c1)C(=O)Cc1ccncc1 , what value of Spearman est (compound concentration vs apparent Tm) is listed for SARS-CoV-2 NSP3 Mac1 (Severe acute respiratory syndrome coronavirus 2)?
Reply: 0.23

Query: Next compound: c1csc(CC2CCN(c3ncnc4[nH]ccc34)C2)n1 (stereo not shown)
Reply: −0.05

Query: Next compound: CN(Cc1nnc2c(=O)[nH]ccn12)c1nccc(C(F)(F)F)n1
Reply: 0.38

Query: Next compound: Cc1nnc2n1CC(C(=O)O)N(C(=O)c1ccc(NC(=O)NC3CC3)cc1)C2 (stereo not shown)
Reply: 0.16

Query: Next compound: C[C@@H]1CN(c2ncnc3[nH]c4ccccc4c23)C[C@@H](CO)O1
Reply: 0.28

Query: Next compound: Cc1c[nH]c2ncc(C(=O)N(C)c3nnn[nH]3)cc12
Reply: 0.73

* * *

measurement.target: SARS-CoV-2 NSP3 Mac1 (Severe acute respiratory syndrome coronavirus 2)
Format: binding
measurement.parameters: ligand modeled in structure; compound stock 100 mM, Echo dispense volume 40 nl
readout.name: Modeled?

{"columns": ["molecule", "Modeled?"],
 "data": [
  ["O=C(O)C[C@@H]1CN(c2ncnc3[nH]c4cc(F)ccc4c23)C[C@H](CO)O1", "TRUE"],
  ["CC1(C)CN(c2ncnc3[nH]c4ccccc4c23)CC(CC(=O)O)O1 (stereo not drawn)", "TRUE"],
  ["Cl.O=C(O)C1CN(c2ncnc3[nH]c4cc(F)ccc4c23)CCO1 (stereo not drawn)", "TRUE"],
  ["O=C(O)CC1CN(c2ncnc3[nH]c4ccccc4c23)CCO1 (stereo not drawn)", "TRUE"],
  ["O=C(O)C1(F)CN(c2ncnc3[nH]c4cc(Br)ccc4c23)CC12CCC2 (stereo not drawn)", "TRUE"]
]}

Next molecule, Modeled? to be filled in.
Query: What does the record list as Modeled? for CS(=O)(=O)NC(=O)C1CN(c2ncnc3[nH]c4cc(F)ccc4c23)CCO1 (stereo not drawn) ?
Reply: TRUE
